# assay info: Partitioning of monomers between water and n-octanol, aqueous phase analysed by CZE
# Format: physicochemical
# experimental conditions: 2 mM monomer, 25°C, read-out: partition coefficient P (converted)
measured endpoint: logP
API note: the answer field is a bare number with no unit suffix.

*Q* Return reported logP; argument: C=CC(=O)NCCCCO
*A* -0.62
